- Measured on: NLRP3 inflammasome (Homo sapiens)
- Construct: endogenous in cells
- Sequence (Q96P20 whole entry): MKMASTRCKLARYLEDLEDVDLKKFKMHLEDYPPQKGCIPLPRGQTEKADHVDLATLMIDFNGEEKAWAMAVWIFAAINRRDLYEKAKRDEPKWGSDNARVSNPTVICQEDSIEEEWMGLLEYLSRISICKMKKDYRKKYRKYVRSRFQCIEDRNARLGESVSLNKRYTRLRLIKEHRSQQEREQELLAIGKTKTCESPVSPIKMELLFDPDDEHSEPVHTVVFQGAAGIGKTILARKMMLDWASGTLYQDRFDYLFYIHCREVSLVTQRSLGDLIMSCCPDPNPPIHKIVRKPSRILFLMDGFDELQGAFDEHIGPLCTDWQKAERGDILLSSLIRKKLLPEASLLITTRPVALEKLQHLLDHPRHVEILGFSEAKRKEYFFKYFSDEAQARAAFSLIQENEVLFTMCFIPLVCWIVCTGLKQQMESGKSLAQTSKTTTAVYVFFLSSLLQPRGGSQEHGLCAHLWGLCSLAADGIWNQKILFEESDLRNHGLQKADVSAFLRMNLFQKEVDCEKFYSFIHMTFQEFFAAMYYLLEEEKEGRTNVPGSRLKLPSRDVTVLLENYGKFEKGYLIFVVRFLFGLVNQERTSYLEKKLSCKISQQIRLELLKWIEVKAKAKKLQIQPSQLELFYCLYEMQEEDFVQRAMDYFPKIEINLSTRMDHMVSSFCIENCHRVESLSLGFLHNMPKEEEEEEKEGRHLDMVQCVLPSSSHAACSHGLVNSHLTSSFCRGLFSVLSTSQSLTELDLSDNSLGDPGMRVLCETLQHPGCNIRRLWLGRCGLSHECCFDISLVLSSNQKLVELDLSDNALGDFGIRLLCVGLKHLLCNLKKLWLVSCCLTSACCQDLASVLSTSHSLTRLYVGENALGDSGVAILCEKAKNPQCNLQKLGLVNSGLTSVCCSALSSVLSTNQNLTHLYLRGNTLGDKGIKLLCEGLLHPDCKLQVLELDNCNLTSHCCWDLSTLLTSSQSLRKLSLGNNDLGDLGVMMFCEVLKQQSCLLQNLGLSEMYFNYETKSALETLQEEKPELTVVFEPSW
- Method notes: THP-1 IL-1β production inhibition test
- Condition set: PMA-treated THP-1 cells, LPS 50 ng/ml + ATP 5 mM, 2 hours, IL-1β in supernatant by ELISA
- Protocol: Test Example 1: THP-1 IL-1β Production Inhibition Test PMA (phorbol myristate acetate, SIGMA, P1585) was added to THP-1 cells in an amount of 50 ng/mL to culture the cells for 2 days at 37° C. […] The IL-1β concentrations were plotted against log concentrations of test compounds, and an IC50 value was calculated by sigmoid Emax model nonlinear regression analysis. […]
Property name: IC50 (nM)

(1) Cc1c(-c2ccc(C(F)(F)F)cc2O)nnc2c1CNC(=O)N2[C@@H]1CCCC[C@H]1O
(2) Cc1c(-c2ccc(C(F)(F)F)cc2O)nnc2c1CN(C)[C@H](C)CN2[C@@H]1CCCC[C@H]1O
Please choose the item with the lower IC50 value from this pair: 1 and 2 Answer by quoting the chosen item's label.
2
(2: 60 nM, 1: 230 nM)
